Data credit: patent US20110263824A1

# system_name: fibronectin
# assay_overview: ELISA on fibronectin-immobilized plate, biotinylated HRP detection
Given measured Binding of fibronectin (A450), output TRUE if it is greater than or equal to 0.8 A450 and FALSE if not.

Please check the record TM2 R104E (other, TM2 mutant) MSDVQSSLTGTWYNELNSKMELTANKDGTLTGKYLSKVGDVYVPYPLSGRYNLQPPAGQGVALGWAVSWENSKIHSATTWSGQFFSESSPVILTQWLLSSSTAEGDVWESTLVGNDSFTKTAPTEQQIAHAQLHCRAPRLK and state if its Binding of fibronectin (A450) is at or above 0.8 A450. FALSE

Quick check, Binding of fibronectin (A450) >= 0.8 A450? TM2 K26A (other, TM2 mutant) MSDVQSSLTGTWYNELNSKMELTANADGTLTGKYLSKVGDVYVPYPLSGRYNLQPPAGQGVALGWAVSWENSKIHSATTWSGQFFSESSPVILTQWLLSSSTARGDVWESTLVGNDSFTKTAPTEQQIAHAQLHCRAPRLK TRUE

Would you say TM2 K141E (other, TM2 mutant) MSDVQSSLTGTWYNELNSKMELTANKDGTLTGKYLSKVGDVYVPYPLSGRYNLQPPAGQGVALGWAVSWENSKIHSATTWSGQFFSESSPVILTQWLLSSSTARGDVWESTLVGNDSFTKTAPTEQQIAHAQLHCRAPRLE shows Binding of fibronectin (A450) at minimum 0.8 A450? FALSE

Quick check, Binding of fibronectin (A450) >= 0.8 A450? TM2 K73Q (other, TM2 mutant) MSDVQSSLTGTWYNELNSKMELTANKDGTLTGKYLSKVGDVYVPYPLSGRYNLQPPAGQGVALGWAVSWENSQIHSATTWSGQFFSESSPVILTQWLLSSSTARGDVWESTLVGNDSFTKTAPTEQQIAHAQLHCRAPRLK TRUE

---
Determine whether this binder has Binding of fibronectin (A450) no lower than 0.8 A450: TM2 R104EK141E (other, TM2 double mutant; also called R104-K141) MSDVQSSLTGTWYNELNSKMELTANKDGTLTGKYLSKVGDVYVPYPLSGRYNLQPPAGQGVALGWAVSWENSKIHSATTWSGQFFSESSPVILTQWLLSSSTAEGDVWESTLVGNDSFTKTAPTEQQIAHAQLHCRAPRLE FALSE

Decide: Binding of fibronectin (A450) of tamavidin 2 (wild type) (other, also called TM2; TM2WT) MSDVQSSLTGTWYNELNSKMELTANKDGTLTGKYLSKVGDVYVPYPLSGRYNLQPPAGQGVALGWAVSWENSKIHSATTWSGQFFSESSPVILTQWLLSSSTARGDVWESTLVGNDSFTKTAPTEQQIAHAQLHCRAPRLK >= 0.8 A450? TRUE
